Listing of recorded % Inhibition by entry.
system: P. falciparum stage V gametocytes; parameters: BacTiter-Glo ATP luminescence viability of purified stage V gametocytes in 384-well plates, per cent inhibition versus DMSO; details: 48 h, 5 µM; inhibitor
Hit rate of the full screen: of about 13,000 compounds, about 3,200 (25%) showed an effect of 50% or more. The list shows a part of the results.
Dear colleague, please return just the value in %, with no unit written.

The cases that follow already have their % Inhibition on record.
molecule=Cc1ccc(NC(=O)c2cccc(CN3CCCN(Cc4cccc(O)c4)CC3)c2)cc1F tgt="P. falciparum stage V gametocytes" units_text=% value_reported=-11.31
molecule="O=C(/C=C/c1ccc(Cl)c(Cl)c1)NC1CCC(CN2CCC(c3c[nH]c4ccccc34)CC2)CC1 (stereo not shown)" tgt="P. falciparum stage V gametocytes" units_text=% value_reported=56.58
molecule=O=C(/C=C/c1ccc(Cl)c(Cl)c1)N1CCC(CN2CCC(c3c[nH]c4cc(C(F)(F)F)ccc34)CC2)CC1 tgt="P. falciparum stage V gametocytes" units_text=% value_reported=22.64
molecule=O=C(/C=C/c1ccc(Cl)c(Cl)c1)NCCCCCN1CCCN(C(=S)Nc2ccc(Cl)c(Cl)c2)CC1 tgt="P. falciparum stage V gametocytes" units_text=% value_reported=-3.43
molecule="O=C(/C=C/c1ccc(Cl)c(Cl)c1)NC1CCC(CN2CCC(c3c[nH]c4ccccc34)C(O)C2)CC1 (stereo not shown)" tgt="P. falciparum stage V gametocytes" units_text=% value_reported=-15.82
molecule="O=C(/C=C/c1ccc(Cl)c(Cl)c1)NC1CCC(CN2CCC(c3c[nH]c4cc(O)ccc34)CC2)CC1 (stereo not shown)" tgt="P. falciparum stage V gametocytes" units_text=% value_reported=41.76

Now for a further molecule.
## Task Which measured % Inhibition belongs to COc1cccc(CN2CCCN(Cc3cccc(NC(=O)c4ccc(Cl)c(Cl)c4)c3)CC2)c1 , tested on P. falciparum stage V gametocytes?
## Result 58.26
